# Assay notes: in vivo
# Condition: mouse, iv
Assay endpoint: Kp at 0.5 h
Answers are plain numbers.

Note to self: Kp at 0.5 h recorded for CC(=O)OCOC(=O)C1CC(C)(C)N([O])C1(C)C (stereo not shown) was 2.88

----------
# Assay notes: in vitro
# Format: in vitro ADME
# Condition: carboxylesterase, 5 min., 37° C.; mean ± SD, n = 3; SD: 0.49 (methyl ester), 2.2 (acetoxymethyl ester); read-out: Hydrolysis Rate
Assay endpoint: metabolised at 5 min (%)
Answers are plain numbers, in %.

Below are some compounds; for each one, tell me its metabolised at 5 min.
1. COC(=O)C1CC(C)(C)N([O])C1(C)C (centres unmarked) [3-carboxy-PROXYL methyl ester]
2. CC(=O)OCOC(=O)C1CC(C)(C)N([O])C1(C)C (centres unmarked) [3-carboxy-PROXYL acetoxymethyl ester]

**A:**
1. 1.35
2. 96.7

----------
# Assay notes: in vitro
# Format: in vitro ADME
# Condition: carboxylesterase, 30 min., 37° C.; mean ± SD, n = 3; SD printed on next line: 1.51 (methyl ester), 0.0 (acetoxymethyl ester); read-out: Hydrolysis Rate
Assay endpoint: metabolised at 0.5 h (%)
Numbers only, in %.

| Compound | Quantitative readout |
| --- | --- |
| CC(=O)OCOC(=O)C1CC(C)(C)N([O])C1(C)C (centres unmarked) [3-carboxy-PROXYL acetoxymethyl ester] | 100 |

Shifting focus to the compound that follows.
Quick note, metabolised at 0.5 h for COC(=O)C1CC(C)(C)N([O])C1(C)C (centres unmarked) [3-carboxy-PROXYL methyl ester] landed at 8.25

----------
For each record, write down the corresponding metabolised at 0.05 h.
# Assay notes: in vitro
# Format: in vitro ADME
# Condition: carboxylesterase, 3 min., 37° C.; mean ± SD, n = 3; SD: 0.49 (methyl ester), 1.1 (acetoxymethyl ester); read-out: Hydrolysis Rate
Give bare numbers, in %.

| Molecule | metabolised at 0.05 h (%) |
| --- | --- |
| CC(=O)OCOC(=O)C1CC(C)(C)N([O])C1(C)C (centres unmarked) | 93.9 |

Next up:
The measured metabolised at 0.05 h associated with COC(=O)C1CC(C)(C)N([O])C1(C)C (centres unmarked) reads 0.8

----------
# Assay notes: in vitro
# Assay type: in vitro ADME
# Condition: carboxylesterase, 10 sec., 37° C.; mean ± SD, n = 3; SD printed on next line: 0.43 (methyl ester), 11.9 (acetoxymethyl ester); read-out: Hydrolysis Rate
Assay endpoint: metabolised at 10 s (%)
Numbers only, in %.

| Compound | metabolised at 10 s / % |
| --- | --- |
| COC(=O)C1CC(C)(C)N([O])C1(C)C (centres unmarked) | 0.05 |

Consider the record given below.
// metabolised at 10 s value for CC(=O)OCOC(=O)C1CC(C)(C)N([O])C1(C)C (centres unmarked) : 30.1

----------
# Assay notes: in vivo
# Condition: mouse, iv
Provide the recorded Kp at 10 min for the entries that follow.

Solved entries (count: 2):
| Compound | Kp at 10 min |
| --- | --- |
| COC(=O)C1CC(C)(C)N([O])C1(C)C (stereo not drawn) | 0.84 to 1.78 |
| CCOC(=O)C1CC(C)(C)N([O])C1(C)C (stereo not drawn) | 0.84 to 1.78 |

Form field Kp at 10 min, entry CC(=O)OCOC(=O)C1CC(C)(C)N([O])C1(C)C (stereo not drawn) : 3.14
